// values below are reported hGLP1R cAMP EC50 ratio
target: human GLP-1 receptor (GLP-1R) (human, UniProt P43220 24-463); assay: cell-based or functional assay; also: reference of the scale not given here
Property: hGLP1R cAMP EC50 ratio

{"Binder": "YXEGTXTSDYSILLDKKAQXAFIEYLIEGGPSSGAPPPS (Aib2, αMeF(2F)6, (2-[2-(2-Amino-ethoxy)-ethoxy]-acetyl)2-(γ-Glu)-CO-(CH2)18-CO2H on K17, Aib20, C-terminal NH2) [Example 325]", "Observed Result": 1.16}
{"Binder": "YXEGTXTSDYSILLDKKAQXEFIEYLIEGGPSSG (Aib2, αMeF(2F)6, (2-[2-(2-Amino-ethoxy)-ethoxy]-acetyl)2-(γ-Glu)-CO-(CH2)16-CO2H on K17, Aib20, C-terminal NH2) [Example 312]", "Observed Result": 1.53}
{"Binder": "FXEGTFTSDYSIXLDKKAQXAFIEYLIEGGPSSGAPPPS (Aib2, αMeL13, (2-[2-(2-Amino-ethoxy)-ethoxy]-acetyl)2-(γ-Glu)-CO-(CH2)18-CO2H on K17, Aib20, C-terminal NH2) [Example 327]", "Observed Result": 0.191}
{"Binder": "YXEGTFTSDYSILLDKKAQHAFIEYLIEGGPSSGAPPPS (Aib2, (2-[2-(2-Amino-ethoxy)-ethoxy]-acetyl)2-(γ-Glu)-CO-(CH2)18-CO2H on K17, C-terminal NH2) [Example 255]", "Observed Result": 1.71}
{"Binder": "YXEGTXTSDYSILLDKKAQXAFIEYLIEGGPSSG (Aib2, αMeF6, (2-[2-(2-Amino-ethoxy)-ethoxy]-acetyl)2-(γ-Glu)-CO-(CH2)16-CO2H on K17, Aib20, C-terminal NH2) [Example 301]", "Observed Result": 1.61}
{"Binder": "XXEGTFTSDYSIXLDXKAQXEFIXYLIEGGPSSGAPPPS (D-Tyr1, Aib2, αMeL13, Orn16, (2-[2-(2-Amino-ethoxy)-ethoxy]-acetyl)2-(γ-Glu)-CO-(CH2)18-CO2H on K17, Aib20, D-Glu24, C-terminal NH2) [Example 355]", "Observed Result": 0.0285}
